Kindly state IC50 for each of the entries shown.
- measured.target: UniProt I6WXK4

Q) Entry under review: O=C(O)c1cc2nc(-c3ccccc3)oc2cc1O [compound 9] . Reported IC50?
A) 20 to 30 µM

Q) Entry under review: O=C(O)c1cc2[nH]c(-c3ccccc3)nc2cc1O [compound 10] . Reported IC50?
A) 20 to 30 µM

====

endpoint: Ki
Your answer should be a number followed by the unit of measure.

Q) Item O=C(O)c1cc2sc(Nc3cccc(Br)c3)nc2cc1O [11h] with mPTPB (Mycobacterium tuberculosis) - Ki?
A) 2200 nM
